As shown below, each of these molecules has a reported TGI value.
# Tested on: RXF 393 renal
# experimental_protocol: NCI tumour cell line growth inhibition, 48 h
readout_type: TGI

molecule	readout_type	value_reported
N#C/C(=C\N1CCNC1=S)C(=O)c1ccc2ccccc2c1	TGI	> 100 µM
CCOC(=O)C1=C(C)N2CCCOC2(C)C(C(=O)OC)C1c1cccc([N+](=O)[O-])c1 (configuration not stated)	TGI	> 100 µM
Cc1ccc2c(c1)C(=O)C1(C2)Cc2ccc(C)cc2C1=O	TGI	> 100 µM
Clc1ccc(OCc2nnc(CCCCCCCCc3nnc(COc4ccc(Cl)cc4)o3)o2)cc1	TGI	> 100 µM
Cc1ccccc1N=Nc1ccc(N=Nc2c(O)ccc3cc(S(=O)(=O)O)cc(S(=O)(=O)O)c23)c(C)c1	TGI	> 100 µM
COC(=O)C(=O)C(C(=O)C(=O)Nc1ccc([N+](=O)[O-])cc1C#N)c1nc2ccc([N+](=O)[O-])cc2[nH]c1=O (configuration not stated)	TGI	> 100 µM
COc1cc2c(cc1OC)C(C1(O)CCCCC1)NCC2 (configuration not stated)	TGI	> 100 µM
CSc1ccc2c(cc1=O)C(NC(=O)c1cc(O)c(OC(=O)O)c(O)c1)CCc1cc(O)c(O)c(O)c1-2 (configuration not stated)	TGI	> 90 µM
CCC1N2CCCCC2[C@@H]2c3[nH]c4ccccc4c3CCN12 (some centres not stated)	TGI	> 100 µM
Cc1nc(SCC(=O)Nc2ccccc2)c2sc(=S)n(-c3ccccc3)c2n1	TGI	> 10 µM
CCOc1ccccc1N=C(NC(=O)CC)SC	TGI	> 100 µM
COc1cc2c(cc1OC)[C@]1(O)C(=O)c3ccc4c(c3O[C@@H]1CO2)C[C@H](C(C)(C)O)O4	TGI	> 100 µM

---

# Tested on: TK-10 renal
# experimental_protocol: NCI tumour cell line growth inhibition, 48 h
readout_type: TGI (µM)

compound	qualifier_symbol	value_reported
COc1cc(C(CN)N(C)C)cc(OC)c1OC (stereo not given)	>	100
N#CC(C(=N/NC(N)=S)/C(=N\NC(N)=S)C(C#N)c1ccccc1)c1ccccc1 (stereo not given)	>	10
COc1ccc(OC)c2c1C(=O)C(Cl)=C(Cl)C2=O	=	9.83
CCN(CCc1ccc(F)cc1)c1ccc(CO)c(Cl)c1	=	1.7
COc1ccc(OC)c(-c2cn3nc(-c4c[nH]c5ccc(Br)cc45)sc3n2)c1	=	6.54
COc1ccc(-c2c(N)n(-c3cc(OC)cc(OC)c3)c(=O)c3cc([N+](=O)[O-])ccc23)cc1	>	100
CNC(=O)OC(C)CN1c2ccccc2Sc2ccccc21 (stereo not given)	>	100
CN1NC(c2ccccc2)=C(C#N)C(=O)CC1c1ccccc1Cl (stereo not given)	>	100
OC(CCN1CCN(CCOC(c2ccc(F)cc2)c2ccc(F)cc2)CC1)c1ccccc1 (stereo not given)	=	29.2
S=C(S)NCCCn1ccnc1	>	100

---

# Tested on: 786-0 renal
# experimental_protocol: NCI tumour cell line growth inhibition, 48 h
As shown below, each of these molecules has a reported TGI value.
readout_type: TGI

molecule	value_reported
Nc1nc(N)c2ncn(Cc3c(Cl)cccc3Cl)c2n1	> 100 µM
CCOc1ccc2c(-c3ccnc(Nc4cccc(C(F)(F)F)c4)n3)cnn2n1	> 19.6 µM
COC(=O)C1=C(O)C(C(=O)OC)[C@@]2(O)[C@@H](C(=O)OC)C(c3ccc(OC(=O)/C(=C/c4ccccc4)c4ccccc4)cc3)C[C@@H]1[C@@H]2C(=O)OC (some centres undefined)	> 100 µM
O=C1c2ccccc2C(=O)c2[nH]c(=O)c(/C=N/Nc3ccc([N+](=O)[O-])cc3)nc21	> 62.2 µM

Data credit: PubChem BioAssay (NCI)
